Give IC50 for every item shown.
# output: bare number, implied unit nM

Query: Lab note: need IC50 for N=C(N)NCCC[C@H](NC(=O)[C@@H]1CCCN1C(=O)[C@H](N)CC1CCCCC1)C(=O)C[n+]1ccccc1 on UniProtKB P00734, anyone have it?
Result: 1.7

Query: Lab note: need IC50 for N=C(N)NCCC[C@H](NC(=O)[C@@H]1CCCN1C(=O)[C@H](N)CC1CCCCC1)C(=O)Cc1ccccc1 on UniProtKB P00734, anyone have it?
Result: 9.9

###

Hi! I'm sharing some Ki results obtained with Prothrombin (Homo sapiens, UniProt P00734).

Query: Suppose we examine the compound N=C(N)NCCC[C@H](NC(=O)[C@@H]1CCCN1C(=O)[C@H](N)CC1CCCCC1)C(=O)Cc1ccccc1 ; what Ki value has been reported?
Result: 1.25 nM

Query: Suppose we examine the compound CC(=O)N[C@H](CC1CCCCC1)C(=O)N1CCC[C@H]1C(=O)N[C@@H](CCCN=C(N)N)C(=O)C[n+]1ccccc1 ; what Ki value has been reported?
Result: 21 nM

Query: Suppose we examine the compound CC(=O)[C@H](CCCN=C(N)N)NC(=O)[C@@H]1CCCN1C(=O)[C@H](N)CC1CCCCC1 ; what Ki value has been reported?
Result: 60 nM

Query: Suppose we examine the compound CC(=O)N[C@H](CC1CCCCC1)C(=O)N1CCC[C@H]1C(=O)N[C@@H](CCCN=C(N)N)C(=O)Cc1ccccc1 ; what Ki value has been reported?
Result: 185 nM

Query: Suppose we examine the compound N=C(N)NCCC[C@H](NC(=O)[C@@H]1CCCN1C(=O)[C@H](N)CC1CCCCC1)C(=O)C[n+]1ccccc1 ; what Ki value has been reported?
Result: 0.19 nM
